molecules and their reported T/C
Test system: L1210 leukemia ip in BDF1 mice, survival T/C
Method: NCI In Vivo Anticancer Drug Screen. Data for tumor model L1210 Leukemia (intraperitoneal) in B6D2F1 (BDF1) mice
Run Conditions: endpoint: mean survival time; dose: 200.0 mg/kg/injection; schedule: Q01DX001 (ip); vehicle: saline; higher = longer survival
Toxic doses and inconclusive results are not listed.

In: Could you tell me which T/C is on file for O=Cc1cc(=O)[nH]c(NC(=O)C(Cl)Cl)n1 ?
Out: 104 % of control

In: Could you tell me which T/C is on file for O=C(OC1CC2CCC1CC2)c1ccc([N+](=O)[O-])cc1 (centres undefined) ?
Out: 95 % of control

In: Could you tell me which T/C is on file for COc1cc(C(O)C(=O)O)c([N+](=O)[O-])cc1OC (centres undefined) ?
Out: 91 % of control

Kindly review the next molecule as well.
In: Could you tell me which T/C is on file for COc1ccc(CN2CCCN(Cc3ccc(OC)cc3OC)C2c2cc(Br)ccc2O)c(OC)c1 ?
Out: 92 % of control

###

Test system: L1210 leukemia ip in BDF1 mice, survival T/C
Method: NCI In Vivo Anticancer Drug Screen. Data for tumor model L1210 Leukemia (intraperitoneal) in B6D2F1 (BDF1) mice
Run Conditions: endpoint: mean survival time; dose: 100.0 mg/kg/injection; schedule: Q01DX001 (ip); vehicle: carboxymethylcellulose (CMC)
Inconclusive results and toxic doses are left out. Cut-off read from the data, not from the text of the source: active = T/C of 150% or more; inactive = T/C below 125%.
The reply should name one outcome from active, inactive

Example entries begin here.
In: State the result this test recorded for O=NN(CCCl)C(=O)Nc1ccc(Br)cc1 .
Out: active

In: State the result this test recorded for O=C1N(Cc2ccccc2)C(=O)C(Cc2ccccc2)(Cc2ccccc2)C(=O)N1Cc1ccccc1 .
Out: inactive

In: State the result this test recorded for Cc1cc([N+](=O)[O-])ccc1I .
Out: inactive

In: State the result this test recorded for COC(=O)/C=C\C=C\C(=O)OC .
Out: inactive

In: State the result this test recorded for O=C(CN1CCOCC1)Nc1ccc(-c2ccc(NC(=O)CN3CCOCC3)cc2)cc1 .
Out: inactive

More entries:
In: State the result this test recorded for CCOC(=O)c1ccc(N(CCC(O)CN=[N+]=[N-])S(=O)(=O)c2ccc(C)cc2)cc1 (stereo not drawn) .
Out: inactive

In: State the result this test recorded for CC(CC#N)c1ccc[nH]1 (stereo not drawn) .
Out: inactive

In: State the result this test recorded for CC(CO)(CO)N=Cc1cc([N+](=O)[O-])ccc1O .
Out: inactive

In: State the result this test recorded for O=c1c(-c2ccccc2)c(-c2ccccc2)n2n1C1C=CC2C1 (stereo not drawn) .
Out: inactive

In: State the result this test recorded for CCc1ccc(C2=C(Cl)C(=O)C(c3ccc(CC)cc3)=C(Cl)C2=O)cc1 .
Out: inactive

In: State the result this test recorded for CC1C2CC3OC(=O)C1C3C2 (stereo not drawn) .
Out: inactive

In: State the result this test recorded for CCOC(=O)n1cccc(C)c1=N .
Out: inactive

In: State the result this test recorded for CC1(C)C2CCC1(CS(=O)(=O)Cl)C(=O)C2 (stereo not drawn) .
Out: inactive

###

Test system: L1210 leukemia ip in BDF1 mice, survival T/C
Method: NCI In Vivo Anticancer Drug Screen. Data for tumor model L1210 Leukemia (intraperitoneal) in B6D2F1 (BDF1) mice
Run Conditions: endpoint: mean survival time; dose: 200.0 mg/kg/injection; schedule: Q04DX003 (ip); vehicle: Klucel (hydroxypropylcellulose) (HPC); higher = longer survival
Inconclusive results and toxic doses are left out.
Property: T/C

Use the examples below as a reference point.
In: Could you tell me which T/C is on file for Cc1ccc(CS)cc1 ?
Out: 97 % of control

In: Could you tell me which T/C is on file for O=C(Nc1ccc(F)cc1)Oc1ccccn1 ?
Out: 103 % of control

In: Could you tell me which T/C is on file for C/C(CCCCCCCCC#N)=N/Nc1ccc([N+](=O)[O-])cc1[N+](=O)[O-] ?
Out: 93 % of control

In: Could you tell me which T/C is on file for C[SiH]1c2ccccc2CCc2ccccc21 ?
Out: 105 % of control

Kindly review the next molecule as well.
In: Could you tell me which T/C is on file for COc1ccc2c3c1OC1c4[nH]ncc4CC4C(C2)N(C)CCC314 (stereo not given) ?
Out: 93 % of control

###

System: L1210 leukemia ip in BDF1 mice, survival T/C
Method: NCI In Vivo Anticancer Drug Screen. Data for tumor model L1210 Leukemia (intraperitoneal) in B6D2F1 (BDF1) mice
Run Conditions: endpoint: mean survival time; dose: 200.0 mg/kg/injection; schedule: Q04DX003 (ip); vehicle: saline with Tween-80; higher = longer survival
Inconclusive results and toxic doses are left out.
Property: T/C

In: Could you tell me which T/C is on file for CCN(CC)CCN1C(=O)C2CCCCC2C1=O (centres undefined) ?
Out: 101 % of control

In: Could you tell me which T/C is on file for CN=C(N)N ?
Out: 101 % of control

In: Could you tell me which T/C is on file for C=C(C)c1cc2ccccc2cc1O ?
Out: 94 % of control

More entries:
In: Could you tell me which T/C is on file for CCCCN(CCCC)CCC(=O)OCC ?
Out: 101 % of control

In: Could you tell me which T/C is on file for CC(C)CN(CC(C)C)c1ccc([N+](=O)[O-])cc1[N+](=O)[O-] ?
Out: 98 % of control

In: Could you tell me which T/C is on file for O/N=C1/CCCC/C1=C/c1ccccc1 ?
Out: 97 % of control

In: Could you tell me which T/C is on file for CC(C)C12CCC(=O)C=C1CCCC2OC(=O)c1ccccc1C(=O)O (centres undefined) ?
Out: 100 % of control

In: Could you tell me which T/C is on file for CC1(ON(c2cc(Cl)cc(Cl)c2)C2(C)c3ccccc3-c3ccccc32)c2ccccc2-c2ccccc21 ?
Out: 97 % of control

###

System: L1210 leukemia ip in BDF1 mice, survival T/C
Method: NCI In Vivo Anticancer Drug Screen. Data for tumor model L1210 Leukemia (intraperitoneal) in B6D2F1 (BDF1) mice
Run Conditions: endpoint: mean survival time; dose: 100.0 mg/kg/injection; schedule: Q04DX003 (ip); vehicle: Klucel (hydroxypropylcellulose) (HPC); higher = longer survival
Toxic doses and inconclusive results are not listed.
Property: T/C

Use the examples below as a reference point.
In: Could you tell me which T/C is on file for COc1ccc(OC)c(NC(=O)Nc2ccc(N(C)C)cc2)c1 ?
Out: 93 % of control

In: Could you tell me which T/C is on file for Cc1c(Cl)cccc1NC(=O)COc1ccc(Cl)cc1 ?
Out: 93 % of control

More entries:
In: Could you tell me which T/C is on file for COc1cccc(CCNC(=O)CC#N)c1OC ?
Out: 100 % of control

In: Could you tell me which T/C is on file for Cc1ccc(NC(=S)N(C)C)cc1Cl ?
Out: 104 % of control

In: Could you tell me which T/C is on file for Cn1c(=O)c2ccccc2c2cc([N+](=O)[O-])ccc21 ?
Out: 90 % of control

In: Could you tell me which T/C is on file for c1cc2cc3c(cc2cc1CC1NCCc2cc4c(cc21)OCO4)OCO3 (stereo unspecified) ?
Out: 100 % of control

In: Could you tell me which T/C is on file for CCC(C)C(C(=O)OCCN(CC)CC)c1ccccc1 (stereo unspecified) ?
Out: 96 % of control

In: Could you tell me which T/C is on file for Fc1cc(F)c(F)c(Oc2c(F)c(F)c(F)c(F)c2F)c1F ?
Out: 100 % of control

In: Could you tell me which T/C is on file for Nc1ccc(C(=O)O)c(Cl)c1 ?
Out: 100 % of control

In: Could you tell me which T/C is on file for N#CCCN(CCC#N)c1ccc(C=O)cc1 ?
Out: 111 % of control

In: Could you tell me which T/C is on file for O=C1C=C(Nc2ccc(N(CCCl)CCCl)cc2)c2ccccc2C1=O ?
Out: 107 % of control

In: Could you tell me which T/C is on file for CC(=O)Oc1ccc(CC(C(=O)O)c2ccccc2)cc1 (stereo unspecified) ?
Out: 100 % of control

In: Could you tell me which T/C is on file for C=CCc1ccccc1NC(=O)NCCCl ?
Out: 93 % of control

In: Could you tell me which T/C is on file for CCCCCCCCOc1ccc(C(=O)c2ccccc2)c(O)c1 ?
Out: 94 % of control

In: Could you tell me which T/C is on file for Cn1c(=O)c2ccccc2c2cc(Cl)ccc21 ?
Out: 96 % of control

In: Could you tell me which T/C is on file for Clc1cc(C(Cl)(Cl)Cl)c(Cl)cc1C(Cl)(Cl)Cl ?
Out: 97 % of control
